# test summary: qHTS RealTime-Glo MT Cell Viability Assay in HepG2 cells - 40 hour (AID 1224870); further: nearly all actives have a fitted effect of over 50% in size
# test settings: RealTime-Glo luminescence; series mostly up to 76.8 µM
Inconclusive results are not listed. Activity calls are given as the source filed them. The call rests on the fitted dose curve; in most records, active means well fitted cell-killing curve with a large enough effect in the repeat runs; inconclusive means weak or mixed curves, or effect the other way; inactive means flat fitted curve, though single readings scatter.
measured attribute: outcome

c1cnc2cc3c(cc2n1)C1CNCC3C1; inactive
O=C1Nc2ccccc2C1(c1ccc(O)cc1)c1ccc(O)cc1; inactive
O=C(O)CP(=O)(O)O; inactive

* * *

# test summary: qHTS assay to identify small molecule phospholipidosis (PLD) inducers (AID 1259344)
# test settings: HepG2 phospholipidosis, LipidTOX Red imaging, 24 h; series mostly up to 38.3 µM
Inconclusive results are not listed. Activity calls are given as the source filed them. The call rests on the fitted dose curve; in most records, active means well fitted activation curve with a large enough effect; inconclusive means small, poorly fitted or top-dose-only effect; inactive means flat fitted curve, though single readings scatter.
measured attribute: outcome

Example compounds with recorded outcome:
CC(C)CCOC(=O)c1ccc(N(C)C)cc1; inactive
O=S(=O)(O)c1ccc2nc(-c3ccccc3)[nH]c2c1; inactive
CC(=O)O[C@]1(C(C)=O)CC[C@H]2[C@@H]3C[C@H](C)C4=CC(=O)CC[C@]4(C)[C@H]3CC[C@@]21C; inactive
CC(COc1ccccc1)N(CCCl)Cc1ccccc1 (configuration not stated); inactive
CNC1(C)C2CCC(C2)C1(C)C (configuration not stated); inactive
NNCCc1ccccc1; inactive

Kindly note the recorded outcome for `Cc1cc(OCCOCC[N+](C)(C)Cc2ccccc2)ccc1C(C)(C)CC(C)(C)C` , which is inactive

`CC[C@]1(O)C[C@@H]2CN(CCc3c([nH]c4ccccc34)[C@@](C(=O)OC)(c3cc4c(cc3OC)N(C)[C@H]3[C@@](O)(C(=O)OC)[C@H](OC(C)=O)[C@]5(CC)C=CCN6CC[C@]43[C@@H]65)C2)C1` has a reported outcome of inactive

The compound listed as `C=CS(=O)(=O)O` shows outcome equal to inactive

Value of measured outcome for the entry `CC1=CC(=O)c2ccccc2C1=O` : inactive

So, CCC(C)(Oc1ccc(C2(c3ccc(OC(C)(CC)C(=O)O)cc3)CCCCC2)cc1)C(=O)O (configuration not stated) ? Its outcome was inactive

Measured outcome of c1ccc2c(c1)CCCC2C1=NCCN1 (configuration not stated) : inactive

Form field outcome, entry O=c1n(CC2CO2)c(=O)n(CC2CO2)c(=O)n1CC1CO1 (configuration not stated) : inactive

* * *

# test summary: qHTS assay to identify small molecule antagonists of the progesterone receptor (PR) signaling pathway - cell viability counter screen (AID 1346798); further: nearly all actives have a fitted effect of over 50% in size
# test settings: PR-UAS-bla HEK293T viability, CellTiter-Glo luminescence, 16 h; series mostly up to 92.4 µM
Records with an inconclusive call do not appear. Active and inactive are the calls of the source. Calls follow the shape of the dose curve; as a rule, active = well fitted cell-killing curve with a large enough effect in the repeat runs; inconclusive = weak or mixed curves, or effect the other way; inactive = no such curve, though single readings can be large or run the other way.
Lab note: assign the record to one of YES (active), NO (inactive)

Problem: Query: recorded result category for `CCCOC(=O)c1cc(O)c(O)c(O)c1` in this test
Solution: NO

Problem: Could you kindly confirm the outcome this assay logged for `c1ccc2cc3c(ccc4ccccc43)cc2c1` ?
Solution: NO

Problem: # fetch the recorded call for `CCOc1ccc2c(c1)C(C)=CC(C)(C)N2` here
Solution: NO

Problem: What did the test return for `CC(=O)CC(=O)Nc1ccc2[nH]c(=O)[nH]c2c1` ?
Solution: NO

Problem: Please state the recorded outcome for this compound: `CCCN[C@H]1CCc2nc(N)sc2C1`
Solution: NO

Problem: For `Clc1ccc2c(c1)C(N1CCNCC1)=Nc1ccccc1O2` , what call appears in the results of this test?
Solution: NO

Problem: For `CCC(C)(C)C(=O)O[C@H]1C[C@@H](C)C=C2C=C[C@H](C)[C@H](CC[C@@H]3C[C@@H](O)CC(=O)O3)[C@H]21` , what call appears in the results of this test?
Solution: NO

Problem: Please share the test call associated with `O=C(O)CCc1ccccc1` .
Solution: NO

Problem: Returns: the outcome recorded for `O=C1CC2(CCCC2)CC(=O)N1CCCCN1CCN(c2ncccn2)CC1` in this assay.
Solution: NO

Problem: Which outcome was assigned to `C=C(C)C(=O)O` in this test?
Solution: NO

Problem: Just curious, what result did `Cc1cccc(O)c1C` get here?
Solution: NO

Problem: So what was the verdict on `CC(C)CCCCCCc1ccc(O)cc1` in this test?
Solution: YES

Problem: Check the results log: what was the call for `c1ccc2c(c1)-c1cccc3c1c-2cc1ccccc13` ?
Solution: NO

Problem: Lab log entry: `O=C(O)Cn1cnnn1` — outcome as called in the assay?
Solution: NO

Problem: Identify the outcome logged in this assay for the compound shown: `Cc1ccc(-c2cc(C(F)(F)F)nn2-c2ccc(S(N)(=O)=O)cc2)cc1`
Solution: NO

Problem: Can you look up the reported call for `CCC[C@H](N[C@@H](C)C(=O)N1[C@H](C(=O)O)C[C@@H]2CCCC[C@@H]21)C(=O)OCC` for me?
Solution: NO

Problem: GET /call?item= `CCOc1ccccc1C(N)=O` returns the recorded outcome of this test.
Solution: NO

Problem: What classification did CCOC(=O)C(C)C(C)=O (stereo not given) end up with in this test?
Solution: NO

Problem: # fetch the recorded call for `CC(C)C(=O)c1c(C(C)C)nn2ccccc12` here
Solution: NO

Problem: // outcome(item) with item = `CN1C(=O)c2ccc([N+](=O)[O-])cc2C1=O`
Solution: NO

Problem: Could you check what this test reported for `Cc1c(O)cccc1C(=O)N[C@@H](CSc1ccccc1)[C@H](O)CN1C[C@H]2CCCC[C@H]2C[C@H]1C(=O)NC(C)(C)C` ?
Solution: YES

Problem: Hello, I am checking results. What call was entered for `COc1ccc(COC(C)=O)cc1` ?
Solution: NO

Problem: Please indicate how the test categorized `NC(N)=NC(=O)Cc1c(Cl)cccc1Cl` .
Solution: NO

Problem: So what was the verdict on `O=C1OC2(c3ccc(O)cc3Oc3cc(O)ccc32)c2ccccc21` in this test?
Solution: NO

Problem: Outcome logged for O=c1n(CC2CO2)c(=O)n(CC2CO2)c(=O)n1CC1CO1 (stereo not given) in this assay:
Solution: NO

Problem: I'd appreciate the recorded outcome for `Cc1ccc(S(=O)(=O)Oc2ccc(N=Nc3ccc(-c4ccc(N=Nc5c(O)ccc6cc(S(=O)(=O)O)cc(S(=O)(=O)O)c56)c(C)c4)cc3C)cc2)cc1` from this test.
Solution: NO

Problem: Record request — test call for `CCN(CC)c1ccc2c(C)cc(=O)oc2c1`
Solution: NO

Problem: Short answer needed: outcome of this test for COc1ccc(CCN(C)CCCC(C#N)(c2ccc(OC)c(OC)c2)C(C)C)cc1OC (stereo not given) ?
Solution: NO

Problem: Test call for this compound, please: `COc1cc(C(=S)N2CCOCC2)ccc1O`
Solution: NO

Problem: Kindly provide the recorded test outcome for the following compound: `CC1=C(C=O)C(C)(C)CC=C1`
Solution: NO

Problem: For `CC(C)(C)c1cc(C(C)(C)C)c(O)c(C(C)(C)C)c1` , which call appears in the assay record?
Solution: NO

Problem: Field: outcome | Entry: `O`
Solution: NO

Problem: State the result this test recorded for `O=C(Nc1ccccc1SSc1ccccc1NC(=O)c1ccccc1)c1ccccc1` .
Solution: NO

Problem: Recorded test call requested for `C=CC(=O)OCCCCCCOC(=O)C=C`
Solution: NO

Problem: Tell me the assay call for `CCc1cc(C(C)(C)C)c(O)c(C(C)(C)C)c1` please.
Solution: NO

* * *

# test summary: qHTS assay to identify small molecule agonists of the AP-1 signaling pathway - cell viability counter screen (AID 1159525); further: nearly all actives have a fitted effect of over 55% in size
# test settings: ME-180 (cervical carcinoma) AP-1-bla cells viability, ATP luminescence, 5 h; series mostly up to 76.8 µM
Records with an inconclusive call do not appear. The source made the active and inactive calls. The call rests on the fitted dose curve.
Answer with one of the outcomes given here: active, inactive

Problem: What did this assay record as the result for O=c1n(CC2CO2)c(=O)n(CC2CO2)c(=O)n1CC1CO1 (stereo not drawn) ?
Solution: inactive

Problem: In this assay, the call recorded for `Oc1c(Cl)cc(Cl)c(Cl)c1Cc1c(O)c(Cl)cc(Cl)c1Cl` was what?
Solution: active

Problem: Lab log entry: BrC1CCC(Br)C(Br)CCC(Br)C(Br)CCC1Br (stereo not drawn) — outcome as called in the assay?
Solution: inactive

Problem: Hello, I am checking results. What call was entered for CCC(=O)/C=C/C1C(C)=CCCC1(C)C (stereo not drawn) ?
Solution: inactive

Problem: Give the logged outcome of this assay for the following compound: C#CC(C)(CC)OC(=O)c1ccccc1C(=O)O (stereo not drawn)
Solution: inactive

Problem: Which outcome did this test record for the compound `NNCCc1ccccc1` ?
Solution: inactive

Problem: For `Clc1ccc2c(c1)C(N1CCNCC1)=Nc1ccccc1O2` , which call appears in the assay record?
Solution: inactive

Problem: Test call, this compound: `O=C(O[C@@H]1Cc2c(O)cc(O)cc2O[C@@H]1c1cc(O)c(O)c(O)c1)c1cc(O)c(O)c(O)c1`
Solution: inactive

Problem: How did this test come out for `O=C1NCC2(CCN(CCc3ccccc3)CC2)O1` ?
Solution: inactive

Problem: Recorded call for `C=C(C)C(=O)O` ?
Solution: inactive

Problem: Check the results log: what was the call for CCCCCCC(O)CCCCCCCCCCC(=O)O (stereo not drawn) ?
Solution: inactive

Problem: I would be grateful if you could indicate the recorded call for `CCCCCC(=O)O[C@]1(C(C)=O)CC[C@H]2[C@@H]3CCC4=CC(=O)CC[C@]4(C)[C@H]3CC[C@@]21C` .
Solution: inactive

Problem: Lab log entry: c1ccc2c(c1)CCCC2C1=NCCN1 (stereo not drawn) — outcome as called in the assay?
Solution: inactive

Problem: Record lookup: outcome of this test for `CC1=CC(=O)c2ccccc2C1=O` ?
Solution: active

Problem: I'd appreciate the recorded outcome for `O=Nc1ccc(Nc2ccccc2)cc1` from this test.
Solution: inactive

Problem: What is the recorded call for this compound in the test? `NC12CC3CC(CC(C3)C1)C2`
Solution: inactive

Problem: What is the recorded call for this compound in the test? `CCN(CC)CCOc1ccc(/C(=C(\Cl)c2ccccc2)c2ccccc2)cc1`
Solution: active

Problem: What did the test return for `O=C(Cl)c1cccc(C(=O)Cl)c1` ?
Solution: inactive

Problem: Entry `Cc1cccc([N+](=O)[O-])c1C(=O)O` : call = ?
Solution: inactive

Problem: Short answer needed: outcome of this test for `O=C1CC2(CCCC2)CC(=O)N1CCCCN1CCN(c2ncccn2)CC1` ?
Solution: inactive

Problem: What did this assay record as the result for `c1ccc2cc3c(ccc4ccccc43)cc2c1` ?
Solution: inactive

Problem: I'd appreciate the recorded outcome for `COc1nc(C)nc(Cl)c1NC1=NCCN1` from this test.
Solution: inactive

Problem: What outcome does the record of this test show for `CC(=O)CC(=O)Nc1ccc2[nH]c(=O)[nH]c2c1` ?
Solution: inactive

Problem: Test call for this compound, please: `O=C(Oc1ccccc1)c1ccccc1O`
Solution: inactive

Problem: For `CC(=O)N[C@@H](CS)C(=O)O` , what call appears in the results of this test?
Solution: inactive

Problem: Test call for this compound, please: `O=C(O)c1cc(Cl)cc(Cl)c1`
Solution: inactive

Problem: Hey, what did the test say about `c1ccc2n[nH]nc2c1` ?
Solution: inactive

Problem: Test call, this compound: `COc1ccc(Cc2cnc(N)nc2N)cc1OC`
Solution: inactive
